- Test system: Pseudomonas aeruginosa
- Test Details: MIC against clinical isolates
- Assay type: cell-based
- Condition Set: Table 6-4, clinical isolate; unit assumed
Assay Readout: MIC Pseudomonas aeruginosa S-1 (µg/mL)
Response body: numeric value in µg/mL, unit text excluded.

Use the examples below as a reference point.
INSERT INTO results (compound, reported_measurement) VALUES
  ('Cn1nnnc1SCC1=C(C(=O)O)N2C(=O)C(NC(=O)C(NC(=O)N3CCN(CCO)C(=O)C3=O)c3ccccc3)C2SC1 (single isomer, unassigned)', 100),
  ('CCCCCCCCN1CCN(C(=O)N[C@@H](C(=O)NC2C(=O)N3C(C(=O)O)=C(CSc4nnnn4C)CSC23)c2ccccc2)C(=O)C1=O (single isomer, unassigned)', 50),
  ('CCN1CCN(C(=O)NC(C(=O)NC2C(=O)N3C(C(=O)O)=C(CSc4nnnn4CC)CSC23)c2ccc(O)cc2)C(=O)C1=O (single isomer, unassigned)', 25),
  ('CCCCN1CCN(C(=O)NC(C(=O)NC2C(=O)N3C(C(=O)O)=C(CSc4nnnn4C)CSC23)c2ccccc2)C(=O)C1=O (single isomer, unassigned)', 50);

We now examine a further compound.
Report MIC Pseudomonas aeruginosa S-1 under test system Pseudomonas aeruginosa for CCN1CCN(C(=O)NC(C(=O)NC2C(=O)N3C(C(=O)O)=C(CSc4nnnn4C)CSC23)c2ccc(O)cc2)C(=O)C1=O (centres unmarked) . 12.5
